# TESTED_SYSTEM: T1, recombinant human CD137 (Homo sapiens, UniProt Q07011)
# T1 construct: made in house; host or cells: FreeStyle293F
# T1 sequence (Q07011 with tags, fused parts or gaps): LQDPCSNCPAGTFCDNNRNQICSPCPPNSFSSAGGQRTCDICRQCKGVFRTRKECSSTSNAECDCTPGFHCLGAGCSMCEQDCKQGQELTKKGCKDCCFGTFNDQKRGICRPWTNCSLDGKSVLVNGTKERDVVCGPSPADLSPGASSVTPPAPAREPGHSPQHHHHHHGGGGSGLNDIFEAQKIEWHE
# TEST_DESCRIPTION: Biacore T200 SPR affinity of Dual-Fab antibodies to human CD137
# Format: binding
# MEASUREMENT_SETUP: 37 degrees C, pH 7.4
PARAMETER_MEASURED: CD137 Koff

MOLECULE	MEASURED
H1610L0939: affinity matured Dual-Fab variant, VH SEQ ID NO 94, VL SEQ ID NO 145 (antibody, V domains shown) VH: QVQLVESGGGLVQPGRSLRLSCAASGFVFSNVWMHWVRQAPGKGLEWVAQIKDKWNAYAAYYAPSVKGRFTISRDDSKNSIYLQMNSLKTEDTAVYYCHYIHYASASTLLPAEGIDAWGQGTTVTVSS VL: DIVMTQSPLSLPVTPGEPASISCQPSQEVVHMNRNTYLHWYQQKPGQAPRLLIYKVSNVFPGVPDRFSGSGSGTDFTLKISRVEAEDVGVYYCAQGTHHPFTFGQGTKLEIK	0.000801 s⁻¹

Now consider a different molecule.
Which CD137 Koff value belongs to H1673L0943: affinity matured Dual-Fab variant, VH SEQ ID NO 100, VL SEQ ID NO 146 (antibody, V domains shown) VH: QVQLVESGGGLVQPGRSLRLSCAASGFVFSNVWFHWVRQAPGKGLEWVAQIKDKWNAYADYYAPSVKERFTISRDDSKNSIYLQMNSLKTEDTAVYYCHYIHYASASTLLPAEGIDAWGQGTTVTVSS VL: DIVMTQSPLSLPVTPGEPASISCQPSEEVVHMNRNTYLHWYQQKPGQAPRLLIYKVSNLFPGVPDRFSGSGSGTDFTLKISRVEAEDVGVYYCAQGTHHPFTFGQGTKLEIK ? 0.000722 s⁻¹

Origin of values: patent US20240425589A1
